From: patent US20180243317A1

Assay: Rodent pharmacokinetics: oral bioavailability and clearance in male mice
Set-up: species or system mouse
Conditions: mouse, in vivo, iv, 3 mg/kg

{"compound": "c1cc(-c2nc(N3CCOCC3)c3oc4ncc(CN5CCC6(CC5)COC6)cc4c3n2)c2cc[nH]c2c1", "AUC(0-t) (ng·h/mL)": 1510}

----------
Assay: Rodent pharmacokinetics: oral bioavailability and clearance in male mice
Set-up: species or system mouse
Conditions: mouse, in vivo, po, 10 mg/kg
assay.readout: AUC(0-t)

{"compound": "c1cc(-c2nc(N3CCOCC3)c3oc4ncc(CN5CCC6(CC5)COC6)cc4c3n2)c2cc[nH]c2c1", "reported.value": "3730 ng·h/mL"}

----------
Molecular target: Recombinant human HDAC6 (Homo sapiens, UniProt Q9UBN7)
Construct: GST (N)
Sequence (Q9UBN7 whole entry): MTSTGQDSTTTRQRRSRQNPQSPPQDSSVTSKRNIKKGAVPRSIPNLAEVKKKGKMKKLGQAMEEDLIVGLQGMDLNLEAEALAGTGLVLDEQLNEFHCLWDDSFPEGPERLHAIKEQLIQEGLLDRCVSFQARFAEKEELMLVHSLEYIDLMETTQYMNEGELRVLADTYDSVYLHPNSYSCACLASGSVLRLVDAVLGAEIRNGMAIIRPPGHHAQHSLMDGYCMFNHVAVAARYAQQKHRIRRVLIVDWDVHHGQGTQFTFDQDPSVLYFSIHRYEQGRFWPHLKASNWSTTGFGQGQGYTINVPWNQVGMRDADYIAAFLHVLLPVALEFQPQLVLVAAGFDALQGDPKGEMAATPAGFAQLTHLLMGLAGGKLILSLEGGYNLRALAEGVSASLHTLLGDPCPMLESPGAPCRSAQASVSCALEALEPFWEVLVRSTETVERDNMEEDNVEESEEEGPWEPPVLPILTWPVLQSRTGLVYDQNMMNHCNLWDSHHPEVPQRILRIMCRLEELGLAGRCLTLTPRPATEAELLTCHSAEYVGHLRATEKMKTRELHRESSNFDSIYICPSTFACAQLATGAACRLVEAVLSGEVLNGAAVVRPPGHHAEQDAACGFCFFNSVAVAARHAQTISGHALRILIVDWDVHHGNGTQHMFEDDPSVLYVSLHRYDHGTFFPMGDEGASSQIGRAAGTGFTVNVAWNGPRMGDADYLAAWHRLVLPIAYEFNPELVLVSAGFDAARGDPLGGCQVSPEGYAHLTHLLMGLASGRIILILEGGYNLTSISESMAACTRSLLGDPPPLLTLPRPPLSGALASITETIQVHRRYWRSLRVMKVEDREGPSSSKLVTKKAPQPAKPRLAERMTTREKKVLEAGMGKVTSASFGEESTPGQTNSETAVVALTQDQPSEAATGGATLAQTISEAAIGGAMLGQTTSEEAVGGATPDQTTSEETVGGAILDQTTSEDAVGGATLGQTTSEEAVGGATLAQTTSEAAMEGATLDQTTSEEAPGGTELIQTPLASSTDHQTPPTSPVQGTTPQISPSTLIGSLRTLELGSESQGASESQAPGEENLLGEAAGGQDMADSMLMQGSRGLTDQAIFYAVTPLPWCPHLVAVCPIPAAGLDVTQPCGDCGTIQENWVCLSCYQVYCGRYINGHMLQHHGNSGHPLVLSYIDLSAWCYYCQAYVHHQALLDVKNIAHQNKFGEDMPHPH
Assay: HDAC biochemical assay with acetylated AMC-labeled peptide substrate
Settings: read-out: IC50 HDAC 6
pIC50: −log10 of the molar value.
Recorded pIC50 for the following molecules

{"compound": "Cc1cccc(N(Cc2ccc(C(=O)NO)cc2)c2ccc(N3CCOCC3)cn2)n1", "pIC50": "6.00 to 6.30"}
{"compound": "COc1cccnc1N(Cc1ccc(C(=O)NO)cc1F)c1cnccn1", "pIC50": "≥ 6.30"}
{"compound": "Cc1nsc(N(Cc2ccc(C(=O)NO)cc2)c2cc(-c3ccc(F)cc3)ccn2)n1", "pIC50": "5.00 to 6.00"}
{"compound": "O=C(NO)c1ccc(CN(c2ccccn2)c2ncns2)cc1", "pIC50": "≥ 6.30"}
{"compound": "COc1cccnc1N(Cc1ccc(C(=O)NO)cc1)c1ccc(N2CCOCC2)cn1", "pIC50": "≥ 6.30"}

----------
Test: Rodent pharmacokinetics: oral bioavailability and clearance in male mice
Parameters: species or system mouse
Conditions: male, mouse, in vivo, iv

{"compound": "c1cc(-c2nc(N3CCOCC3)c3oc4ncc(CN5C[C@@H]6C[C@H]5CO6)cc4c3n2)c2cc[nH]c2c1", "clearance (mL/min/kg)": 21}

----------
Observed IC50 for Human HDAC1 (Homo sapiens, UniProt Q13547), reported per entry below.

{"compound": "O=C(NO)c1ccc(CN(c2cnccn2)c2cccnn2)cc1 [Example MM]", "IC50": "> 10 µM"}
{"compound": "COc1cccnc1N(Cc1ccc(C(=O)NO)cc1)c1ccc(C)cn1 [Example X]", "IC50": "> 10 µM"}
{"compound": "COc1ccc(N(Cc2ccc(C(=O)NO)cc2)c2ccc(N3CCOCC3)cn2)nc1 [Example AA]", "IC50": "1 to 10 µM"}
{"compound": "COc1ccnc(N(Cc2ccc(C(=O)NO)cc2)c2cnccn2)c1 [Example PP]", "IC50": "1 to 10 µM"}
{"compound": "Cn1c(N(Cc2ccc(C(=O)NO)cc2)c2ccc(F)cn2)nc2ccccc21 [Example N]", "IC50": "> 10 µM"}
{"compound": "Cc1cccc(N(Cc2ccc(C(=O)NO)cc2)c2ccc(N3CCOCC3)cn2)n1 [Example CC]", "IC50": "> 10 µM"}
{"compound": "O=C(NO)c1ccc(CN(c2ccncn2)c2cnccn2)cc1 [Example DD]", "IC50": "1 to 10 µM"}
{"compound": "O=C(NO)c1ccc(CN(c2ccccn2)c2nc(C(F)(F)F)ns2)cc1 [Example W]", "IC50": "> 10 µM"}
{"compound": "O=C(NO)c1ccc(CN(c2ccc(F)cn2)c2nc(C(F)(F)F)ns2)cc1 [Example T]", "IC50": "> 10 µM"}
{"compound": "O=C(NO)c1ccc(CN(c2ccccn2)c2nccc3sccc23)cc1 [Example BB]", "IC50": "1 to 10 µM"}
{"compound": "Cc1noc(N(Cc2ccc(C(=O)NO)cc2)c2ccc(F)cn2)n1 [Example M]", "IC50": "> 10 µM"}
{"compound": "Cc1nsc(N(Cc2ccc(C(=O)NO)cc2)c2cnccn2)n1 [Example OO]", "IC50": "1 to 10 µM"}
{"compound": "COc1cccnc1N(Cc1ccc(C(=O)NO)cn1)c1cnccn1 [Example LL]", "IC50": "> 10 µM"}

----------
Assay: Rodent pharmacokinetics: oral bioavailability and clearance in male mice
Design: species or system mouse
Settings: male, mouse, in vivo; summary table, mice, IV; read-out: Clearance
Procedure: Formulation: 10% DMSO, 90% Saline Dosing: 10 mg/kg P.O. and 5 mg/kg I.V. Animals in Group 1 were administered intravenously with Example B solution formulation in 20% Propylene Glycol, 50% of PEG 400 and 30% of (20% HPβCD in water) via tail vein at a dose of 3 mg/kg. Animals in Group 2 were administered with oral solution formulation of Example B in 20% Propylene Glycol, 50% of PEG 400 and 30% of (20% HPβCD in water) at a dose of 10 mg/kg; Dosing: 10 mg/kg P.O. and 3 mg/kg I.V. […]

{"molecule": "c1cc(-c2nc(N3CCOCC3)c3oc4ncc(CN5CCC56COC6)cc4c3n2)c2cc[nH]c2c1 [G]", "clearance (mL/min/kg)": 26}
